Hi there, I'd appreciate the recorded inhibition for every entry that follows.
target: Solute carrier family 2, facilitated glucose transporter member 1 (Homo sapiens); test: ST_JUDE_LEISH: Cytotoxicity at 2uM final concentration against transgenic Leishmania Mexicana promastigotes LmGLUT1 that are glucose transport deficient and complemented with the human glucose transporter GLUT1. Activity is measured by DNA content using SYBR green in vitro; format: functional
Numbers only, in %.

* c1cc(-c2ccc(CNCc3ccsc3)cc2)cc(-c2nc3ccccc3[nH]2)c1 | 1.08
* O=C(Nc1ccc(-c2nc3ccccc3[nH]2)cc1)C1CCCN(C2CCC2)C1 (stereo unspecified) | 19.8
* Nc1cccc(CNCc2ccc(-c3ccc(-c4nc5cc(C(F)(F)F)ccc5[nH]4)s3)cc2)c1 | 2.29
* COc1cc2nc(N3CCC(CNC(=O)c4ccc(-c5ccc(C(=O)N(C)C)cc5)cc4)CC3)nc(N)c2cc1OC | 1.96
* COc1ccc(CN2CCC(CNC(C)c3cccc4ccccc34)CC2)cc1 (stereo unspecified) | 7.32
* Cc1cc(N[C@@H](Cc2ccccc2)C(=O)Nc2ccccc2)nc(Nc2ccccc2)n1 | 5.97

The following compounds each have a reported value; give each one's inhibition.
1. CC1(C)[C@H]2CC[C@@H](CNc3nc(NCCc4c[nH]cn4)nc(NCc4cc(F)ccc4F)n3)[C@@H]1C2
2. Cc1noc(-c2cccs2)c1C(=O)NC(C)c1cccc2ccccc12 (stereo unspecified)
3. O=C(Nc1ccc(Cn2ncc(N3CCCNCC3)c(Cl)c2=O)cc1)Nc1cc(F)cc(C(F)(F)F)c1
4. CC(C)(O)CC(C)(C)c1cc(Cl)ccc1O

4.07
-0.34
2.7
6.46

# credit: ChEMBL document CHEMBL3433997
